# Tested on: T-47D breast
# method: NCI tumour cell line growth inhibition, 48 h; in the data active = GI50 below about 0.43 µM; inactive = the rest
// one of True = active, False = inactive, no free text

Previously resolved entries follow.
- molecule: "COc1ccc(/C=C(\\C#N)n2nnc3ccccc32)cc1"
  assay.system: "T-47D breast"
  answer.label: "True"
- molecule: "C=C1C(=O)O[C@H]2[C@H]1CCC(/C=N/c1ncc(Br)cc1N)=C\\CC[C@@]1(C)O[C@@H]21"
  assay.system: "T-47D breast"
  answer.label: "False"
- molecule: "Cc1cc(NCc2cc(Nc3ccnc4cc(Cl)ccc34)ccc2F)nc(N2CCN(C)CC2)n1"
  assay.system: "T-47D breast"
  answer.label: "False"
- molecule: "COc1cc(NC(=O)CSc2nc3ccc(C)cc3c(=O)n2Cc2ccccc2)cc(OC)c1OC"
  assay.system: "T-47D breast"
  answer.label: "False"
- molecule: "CNC(=O)CC1NC(=O)c2csc(n2)-c2ccc(-c3nc(C4=NC(C(=O)N5CCCC5C(N)=O)CO4)cs3)nc2-c2csc(n2)-c2csc(n2)C(C(C)C)NC(=O)CNC(=O)c2csc(n2)C(C(C)C)NC(=O)c2nc1sc2C (centres undefined)"
  assay.system: "T-47D breast"
  answer.label: "False"
- molecule: "COc1ccc(-n2cc(-c3cc(OC)c(OC)c(OC)c3)nc2SCc2ccccc2)cc1OC"
  assay.system: "T-47D breast"
  answer.label: "False"
- molecule: "CCN1C(=O)N(c2ccccc2)C2NC(=S)N(/N=C/C=C/c3ccccc3)C21 (centres undefined)"
  assay.system: "T-47D breast"
  answer.label: "True"
- molecule: "Cc1ccc2c(c1)C(C)Cc1c(Cl)ncnc1N2C (centres undefined)"
  assay.system: "T-47D breast"
  answer.label: "False"

Kindly consider the entry below.
Q: Field: outcome | Entry: Oc1ccccc1CNCC12CC3CC(CC(C3)C1)C2
Ans: False

====

# System: HCT-15 colon
# method: NCI tumour cell line growth inhibition, 48 h
Listing: TGI of selected compounds

- compound: "CC(C)(C)C(=O)CP(=O)(O)O"
  test.result: "> 100 µM"
- compound: "COc1cccc2c1C(=O)c1c(O)c3c(c(O)c1C2=O)C[C@@](O)(C(=O)CO)C[C@@H]3O[C@H]1C[C@H](N)[C@@H](O)[C@H](C)O1"
  test.result: "50 µM"
- compound: "O=C1CCCC1C(O)(C(F)(F)F)C(F)(F)F (stereo not drawn)"
  test.result: "> 100 µM"
- compound: "COc1ccc(/C=C(\\C#N)n2nnc3ccccc32)cc1"
  test.result: "> 100 µM"

Q: TGI lookup needed for Cc1cc2sc(C)[n+](CCCOS(=O)(=O)[O-])c2cc1C , thanks.
Ans: > 100 µM

Q: TGI lookup needed for O=[N+]([O-])c1cc2c(c([N+](=O)[O-])c1)NCc1ccccc1O2 , thanks.
Ans: > 100 µM

Q: TGI lookup needed for COc1cc(/C=N/NC(=O)c2cnn3c2NC(c2ccccc2)C3)ccc1Oc1ccccc1 (stereo not drawn) , thanks.
Ans: 3.15 µM

Q: TGI lookup needed for CC(=O)C(CN(Cc1ccccc1)Cc1ccccc1)C(c1ccccc1)c1c(O)c2ccccc2oc1=O (stereo not drawn) , thanks.
Ans: > 100 µM

Q: TGI lookup needed for CC1(C)C/C(=N/O)c2c(nc3ccc4ccccc4c3c2-c2ccc(Cl)cc2)C1 , thanks.
Ans: 41.6 µM

Q: TGI lookup needed for O=C(Nc1ccccc1)n1[nH]c(=O)n(-c2ccccc2)c1=O , thanks.
Ans: > 100 µM

Q: TGI lookup needed for O=C(Nc1ccc2[nH]c(=S)sc2c1)Nc1ccccc1F , thanks.
Ans: > 100 µM

Q: TGI lookup needed for Clc1ccc2nnnn2n1 , thanks.
Ans: > 100 µM

Q: TGI lookup needed for O=S(Nc1ccccc1)c1ccc(Cl)c(Cl)c1 (stereo not drawn) , thanks.
Ans: > 100 µM

Q: TGI lookup needed for Nc1ccc(CCSSCCc2ccc(N)cc2)cc1 , thanks.
Ans: > 67.9 µM

Q: TGI lookup needed for CC(C)(C)OC(=O)NC(CCC(=O)OCc1ccccc1)C(=O)NCCCO (stereo not drawn) , thanks.
Ans: > 100 µM

====

Listing: TGI of selected molecules
# Test system: HT29 colon
# method: NCI tumour cell line growth inhibition, 48 h
Value expressed in µM; do not type the unit.

- cpd.smiles: "Cc1ccc(C)n1-c1ccccc1C1C=CN(C(=O)OC(C)(C)C)C=C1"
  unit: "µM"
  test.result: 27.7

// next entry
Q: TGI lookup needed for N#Cc1ccc(C(=O)/C=C/c2ccc(O)c(O)c2)cc1 , thanks.
Ans: 31.2

====

# Tested on: MCF7 breast
# method: NCI tumour cell line growth inhibition, 48 h
Listing: TGI of selected compounds
Value expressed in µM; do not type the unit.

Worked cases, answers included:
- compound: "Cc1cc(NCc2cc(Nc3ccnc4cc(Cl)ccc34)ccc2F)nc(N2CCN(C)CC2)n1"
  assay.system: "MCF7 breast"
  measure.name: "TGI"
  unit: "µM"
  test.result: 5.65
- compound: "Cc1ccc(C)n1-c1ccccc1C1C=CN(C(=O)OC(C)(C)C)C=C1"
  assay.system: "MCF7 breast"
  measure.name: "TGI"
  unit: "µM"
  test.result: 32.6
- compound: "CC(C)c1c(O)ccc2c1CCC1C(C)(C)CCCC21C (stereo not given)"
  assay.system: "MCF7 breast"
  measure.name: "TGI"
  unit: "µM"
  test.result: 35.3

// next entry
Q: TGI lookup needed for CN(C)CC1C(=O)O[C@H]2[C@H]1CC/C(COC(=O)c1cc3ccccc3[nH]1)=C\CC[C@@]1(C)O[C@@H]21 (stereo not given in full) , thanks.
Ans: 4.55

====

Listing: TGI of selected molecules
# Test system: RPMI-8226 leukemia
# method: NCI tumour cell line growth inhibition, 48 h
Value expressed in µM; do not type the unit.

Worked cases, answers included:
- molecule: "CCOC(=O)/C(=C\\c1cccs1)P(=O)(OCC)OCC"
  assay.system: "RPMI-8226 leukemia"
  TGI [µM]: 77.1
- molecule: "CC(C)c1c(O)ccc2c1CCC1C(C)(C)CCCC21C (stereo not given)"
  assay.system: "RPMI-8226 leukemia"
  TGI [µM]: 49.3
- molecule: "CNCCNc1c2c(c(NCCNC)c3[nH]ccc13)C(=O)c1ccccc1C2=O"
  assay.system: "RPMI-8226 leukemia"
  TGI [µM]: 0.214

// next entry
Q: TGI lookup needed for O=P(CCCCP(=O)(c1ccccc1)c1ccccc1)(c1ccccc1)c1ccccc1.[Cl][Sn]([Cl])([c]1ccccc1)[c]1ccccc1 , thanks.
Ans: 1.16

====

# Tested on: IGROV1 ovarian
# method: NCI tumour cell line growth inhibition, 48 h
measure.name: TGI

Worked cases, answers included:
- compound: "Nc1ncnc2c1ncn2C1OC(CO)C(O)C(O)C1O (stereo unspecified)"
  measure.name: "TGI"
  test.result: "> 100 µM"
- compound: "COc1ccccc1N1CCN(CCc2c[nH]c3cc4c(cc23)OCO4)CC1"
  measure.name: "TGI"
  test.result: "> 100 µM"
- compound: "COCn1cnc2c(=O)n(-c3ccc(OC)cc3)c(=S)n(-c3ccc(OC)cc3)c21"
  measure.name: "TGI"
  test.result: "> 100 µM"
- compound: "Cc1ccc2c(c1)CC1(Cc3c(C)cccc3C1=O)C2=O (stereo unspecified)"
  measure.name: "TGI"
  test.result: "> 100 µM"

Q: Provide the documented TGI with IGROV1 ovarian as the system for C=CCN1C(=O)/C(=C/c2ccc(C)cc2)NC1=S
Ans: > 100 µM

Q: Provide the documented TGI with IGROV1 ovarian as the system for CC1(O)CC(c2nc(-c3ccc4ccc(-c5ccccc5)nc4c3)c3c(N)nccn23)C1 (stereo unspecified)
Ans: > 100 µM

Q: Provide the documented TGI with IGROV1 ovarian as the system for O=C(NC1C=Nc2ccc([N+](=O)[O-])cc2NC1=O)c1cc(Cl)cc([N+](=O)[O-])c1 (stereo unspecified)
Ans: > 100 µM

Q: Provide the documented TGI with IGROV1 ovarian as the system for O=P1(c2ccccc2)C(c2ccccc2)=CC=C1c1ccccc1
Ans: > 100 µM

Q: Provide the documented TGI with IGROV1 ovarian as the system for COc1cccc(N2C(=O)/C(=C\c3ccccc3)SC2c2cc(OC)c(OC)c(OC)c2)c1 (stereo unspecified)
Ans: > 100 µM

Q: Provide the documented TGI with IGROV1 ovarian as the system for C=C1C(=O)O[C@H]2[C@H]1CCC(/C=N/c1ncc(Br)cc1N)=C\CC[C@@]1(C)O[C@@H]21
Ans: 7.44 µM

Q: Provide the documented TGI with IGROV1 ovarian as the system for C[C@]12C[C@@H](c3ccccc3)Nc3ccccc3N1C(c1ccccc1)=NO2
Ans: > 100 µM

Q: Provide the documented TGI with IGROV1 ovarian as the system for Nc1nc2n[nH]nc2c(=O)[nH]1
Ans: > 100 µM

Q: Provide the documented TGI with IGROV1 ovarian as the system for CCOC(=O)[C@@H]1CCN2CN(c3ccc(OC)cc3)N=C(c3ccccc3)[C@@]12c1ccccc1
Ans: 72.1 µM

Q: Provide the documented TGI with IGROV1 ovarian as the system for O=S(=O)(c1cccc2c(Cl)cccc12)N1CCCNCC1
Ans: 34.6 µM
